test system: Semliki Forest virus; assay: Antiviral activity against Forest virus (SFV); assay type: functional
outcome.measure: ED50 (mg/kg)
One number for each entry, in mg/kg.

# count of solved cases: 3
| structure.smiles.string | ED50 [mg/kg] |
| --- | --- |
| Nc1nc(O)c(Cl)c(-c2cc(Cl)ccc2Cl)n1 | 120 |
| Cc1ccccc1-c1nc(N)nc(O)c1Br | 60 |
| Nc1nc(O)c(I)c(-c2ccco2)n1 | 135 |

# map each molecule to its ED50
1. Nc1nc(O)c(I)c(-c2ccccc2F)n1
2. Nc1nc(O)c(I)c(-c2ccc(Cl)cc2)n1
3. Nc1nc(O)c(Br)c(-c2cccc(Cl)c2)n1
4. Nc1nc(O)c(Cl)c(-c2cccc(Cl)c2)n1
5. Cc1ccccc1-c1nc(N)nc(O)c1Cl
6. Nc1nc(O)c(I)c(-c2cc(F)ccc2F)n1
7. COc1cccc(-c2nc(N)nc(O)c2Cl)c1
8. Nc1nc(O)c(Br)c(-c2ccccc2Cl)n1

Data returned:
1. 105
2. 110
3. 30
4. 135
5. 130
6. 95
7. 15
8. 285

# batch: return ED50 for each of the 8 molecules below
1. Nc1nc(O)c(Cl)c(-c2cnccn2)n1
2. Nc1nc(O)c(I)c(-c2cccc(F)c2)n1
3. Nc1nc(O)c(I)c(-c2ccccc2Cl)n1
4. Nc1nc(O)c(Br)c(-c2cccc([N+](=O)[O-])c2)n1
5. Nc1nc(O)c(Br)c(-c2ccc(F)cc2)n1
6. Nc1nc(O)c(I)c(-c2ccccc2)n1
7. Nc1nc(O)c(I)c(-c2cnccn2)n1
8. Nc1nc(O)c(Br)c(-c2ccccc2F)n1

Data returned:
1: 110; 2: 10; 3: 90; 4: 140; 5: 160; 6: 50; 7: 275; 8: 25

List ED50 for every entry below, keeping the order given.
1. Nc1nc(O)c(Cl)c(-c2cccc3ccccc23)n1
2. CCCOc1cccc(-c2nc(N)nc(O)c2I)c1

Data returned:
1. 80
2. 100

* * *

tested on: Semliki Forest virus; assay: Antiviral activity against Forest virus (SFV); assay type: functional
Threshold-based label: ED50 under 80 mg/kg gives 1, ED50 not under 80 mg/kg gives 0.

| structure.smiles.string | discrete.label |
| --- | --- |
| Nc1nc(O)c(Cl)c(-c2ccccc2)n1 | 0 |
| Nc1nc(O)c(Br)c(-c2ccoc2)n1 | 0 |
| Nc1nc(O)c(Br)c(-c2ccncc2)n1 | 0 |
| COc1ccccc1-c1nc(N)nc(O)c1Cl | 1 |
| COc1cc(OC)cc(-c2nc(N)nc(O)c2I)c1 | 1 |
| Nc1nc(O)c(Br)c(-c2ccccn2)n1 | 1 |
| Nc1nc(O)c(Br)c(-c2cccc(F)c2)n1 | 1 |
| CCCOc1cccc(-c2nc(N)nc(O)c2Cl)c1 | 1 |

Data request: Please indicate whether the reported ED50 of COc1ccc(-c2nc(N)nc(O)c2Br)cc1 is strictly below 80 mg/kg.
Data returned: 0

Data request: What about this molecule? COc1cccc(-c2nc(N)nc(O)c2I)c1
Data returned: 1

Data request: Quick one: Cc1ccccc1-c1nc(N)nc(O)c1I
Data returned: 0

Data request: Then Nc1nc(O)c(Br)c(-c2cc(Cl)ccc2Cl)n1 ?
Data returned: 0

Data request: Consider next the molecule Nc1nc(O)c(Br)c(-c2ccc(Cl)c(Cl)c2)n1 in the same way.
Data returned: 0

* * *

test system: Semliki Forest virus; assay: Antiviral activity against Forest virus (SFV); format: functional
// classify: if (ED50 < 200 mg/kg) Satisfied else Not satisfied

Field: example entries. Status: answers known.
| structure.smiles.string | discrete.label |
| --- | --- |
| Nc1nc(O)c(Br)c(-c2cnccn2)n1 | Satisfied |
| Nc1nc(O)c(Cl)c(-c2ccc(O)cc2)n1 | Not satisfied |

Data request: Strictly below 200 mg/kg in ED50? Nc1nc(O)c(Br)c(-c2cccc(I)c2)n1
Data returned: Not satisfied

Data request: Next up: Nc1nc(O)c(Br)c(-c2cc(F)cc(F)c2)n1
Data returned: Satisfied

Data request: Next up: Nc1nc(O)c(I)c(-c2cccc([N+](=O)[O-])c2)n1
Data returned: Satisfied

Data request: Now the same for Nc1nc(O)c(I)c(-c2cc(Cl)ccc2Cl)n1
Data returned: Not satisfied

Data request: Then CCCOc1cccc(-c2nc(N)nc(O)c2Br)c1 ?
Data returned: Satisfied
